Kindly supply the reported residual activity values for the records listed here.
measurementTarget: Solute carrier organic anion transporter family member 1B1 (Homo sapiens, UniProt Q9Y6L6)
runParameters: chinese hamster, cho, 10 µM
The reply should be a number in %, with the unit left off.

Input line: Answer with the recorded residual activity of CC(N/C(=N\C#N)Nc1ccncc1)C(C)(C)C (stereo not given) [PINACIDIL ANHYDROUS] only.
Output line: 96.43

Input line: Answer with the recorded residual activity of NS(=O)(=O)c1cc2c(cc1C(F)(F)F)NCNS2(=O)=O [HYDROFLUMETHIAZIDE] only.
Output line: 82.22

Input line: Answer with the recorded residual activity of CCCC(C)(COC(N)=O)COC(=O)NC(C)C (stereo not given) only.
Output line: 106

Input line: Answer with the recorded residual activity of Cc1cccc(C)c1NC(=O)C1CCCCN1C.Cl (stereo not given) [MEPIVACAINE HYDROCHLORIDE] only.
Output line: 96.31

Input line: Answer with the recorded residual activity of `C[C@@H]1[C@H](O)[C@@H](C)/C=C/C=C/C=C/C=C/C=C/C=C/C=C/[C@H](O[C@@H]2O[C@H](C)[C@@H](O)[C@H](N)[C@@H]2O)C[C@@H]2O[C@](O)(C[C@@H](O)C[C@@H](O)[C@H](O)CC[C@@H](O)C[C@@H](O)CC(=O)O[C@H]1C)C[C@H](O)[C@H]2C(=O)O` only.
Output line: 89.01

Input line: Answer with the recorded residual activity of `Cc1cc(=O)c2c(O)cc(O)c(C)c2o1` only.
Output line: 129.2

Input line: Answer with the recorded residual activity of `S=P(N1CC1)(N1CC1)N1CC1` only.
Output line: 67.53

Input line: Answer with the recorded residual activity of Cl.O=C(COc1ccc(Cl)cc1)N1CCN(Cc2ccc3c(c2)OCO3)CC1 [FIPEXIDE HYDROCHLORIDE] only.
Output line: 103.1

Input line: Answer with the recorded residual activity of CC(=O)OCC(=O)[C@@]1(O)[C@H](C)C[C@H]2[C@@H]3CCC4=CC(=O)C=C[C@]4(C)[C@@]3(F)[C@@H](O)C[C@@]21C [DEXAMETHASONE ACETATE] only.
Output line: 106

Input line: Answer with the recorded residual activity of `O=C(O)c1cc2ccccc2[nH]1` only.
Output line: 121.4

Input line: Answer with the recorded residual activity of CCCCCC(C)N.O=S(=O)(O)O (stereo not given) only.
Output line: 70.88

Input line: Answer with the recorded residual activity of Cc1cc(/C=C/c2ccc3cc(N(C)C)ccc3[n+]2C)c(C)n1-c1ccccc1.Cc1cc(/C=C/c2ccc3cc(N(C)C)ccc3[n+]2C)c(C)n1-c1ccccc1.O=C([O-])c1cc2ccccc2c(Cc2c(O)c(C(=O)[O-])cc3ccccc23)c1O [PYRVINIUM PAMOATE] only.
Output line: 42.61

Input line: Answer with the recorded residual activity of COc1cc2c(cc1OC)C1C(=O)c3c(cc4c(c3O)C=CC(C)(C)O4)OC1CO2 (stereo not given) only.
Output line: 67.84

Input line: Answer with the recorded residual activity of Cl.N[C@H]1C(O)O[C@H](CO)[C@@H](O)[C@@H]1O (stereo not given in full) [GLUCOSAMINE HYDROCHLORIDE] only.
Output line: 60.72

Input line: Answer with the recorded residual activity of `CN(C)C(=O)Nc1ccc(Cl)c(Cl)c1` only.
Output line: 105.4

====

measurementTarget: Solute carrier organic anion transporter family member 1B1 (Homo sapiens, UniProt Q9Y6L6)
runParameters: chinese hamster, cho, 10 µM
Kindly supply the reported residual activity values for the records listed here.
The reply should be a number in %, with the unit left off.

Input line: Answer with the recorded residual activity of C/C=C(\C)C(=O)O[C@H]1C[C@@H](OC(C)=O)[C@@]2(C(=O)OC)CO[C@H]3[C@@H](O)[C@@](C)([C@]45O[C@@]4(C)[C@@H]4C[C@H]5O[C@@H]5OC=C[C@@]54O)[C@H]4[C@]1(CO[C@]4(O)C(=O)OC)[C@@H]32 [AZADIRACHTIN A] only.
Output line: 51.12

Input line: Answer with the recorded residual activity of CC(C)(OC(=O)c1ccccc1)[C@@H]1Cc2cc3ccc(=O)oc3cc2O1 [FELAMIDIN] only.
Output line: 115.2

Input line: Answer with the recorded residual activity of O=C(NC(Cc1cc(=O)[nH]c2ccccc12)C(=O)O)c1ccc(Cl)cc1 (stereo unspecified) [REBAMIPIDE] only.
Output line: 97.98

Input line: Answer with the recorded residual activity of C[C@H]1CCCC(=O)CCC/C=C/c2cc(O)cc(O)c2C(=O)O1 [ZEARALENONE] only.
Output line: 55.9

Input line: Answer with the recorded residual activity of CC(=O)OCC1=C(C(=O)[O-])N2C(=O)[C@@H](NC(=O)CSc3ccncc3)[C@H]2SC1.[Na+] [CEPHAPIRIN SODIUM] only.
Output line: 85.65

Input line: Answer with the recorded residual activity of CCOC(=O)[C@H](CCc1ccccc1)N[C@@H](C)C(=O)N1Cc2ccccc2C[C@H]1C(=O)O.Cl [QUINAPRIL HYDROCHLORIDE] only.
Output line: 109.5

====

Kindly supply the reported pKi values for the records listed here.
measurementTarget: Solute carrier organic anion transporter family member 1B1 (Homo sapiens)
Sequence (Q9Y6L6 whole entry): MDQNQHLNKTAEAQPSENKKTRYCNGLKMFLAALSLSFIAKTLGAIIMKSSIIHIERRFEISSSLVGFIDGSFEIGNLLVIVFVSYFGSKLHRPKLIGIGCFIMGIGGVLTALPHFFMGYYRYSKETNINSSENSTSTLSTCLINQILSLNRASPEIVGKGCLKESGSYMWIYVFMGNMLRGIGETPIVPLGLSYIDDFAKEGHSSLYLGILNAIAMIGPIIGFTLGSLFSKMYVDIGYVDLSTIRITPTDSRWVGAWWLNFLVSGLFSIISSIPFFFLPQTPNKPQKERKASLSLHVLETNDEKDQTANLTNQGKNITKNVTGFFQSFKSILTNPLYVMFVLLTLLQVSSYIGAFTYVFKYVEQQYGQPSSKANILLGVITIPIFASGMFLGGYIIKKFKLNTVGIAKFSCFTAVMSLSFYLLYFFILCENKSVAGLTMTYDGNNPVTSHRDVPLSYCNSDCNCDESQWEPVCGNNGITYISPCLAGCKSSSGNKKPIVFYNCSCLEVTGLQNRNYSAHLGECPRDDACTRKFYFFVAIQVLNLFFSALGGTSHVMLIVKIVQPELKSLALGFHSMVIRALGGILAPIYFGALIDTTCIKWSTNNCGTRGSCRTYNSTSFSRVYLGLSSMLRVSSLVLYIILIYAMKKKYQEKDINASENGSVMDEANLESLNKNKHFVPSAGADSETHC
Formally, pKi is defined as -log10 of the concentration c, with c in mol/L.

Input line: Answer with the recorded pKi of `CCCCCCCCCc1ccc(OCCOCCOCCOCCOCCOCCOCCOCCOCCO)cc1` only.
Output line: 5.72

Input line: Answer with the recorded pKi of CC(C)=CCC[C@]1(C)C=Cc2c(O)c3c(c(CC=C(C)C)c2O1)O[C@]12C(C[C@@H]4C[C@H]1C(C)(C)O[C@@]2(C/C=C(/C)C(=O)O)C4O)C3=O (stereo partly specified) only.
Output line: 5.96

Input line: Answer with the recorded pKi of O=C(O[C@@H]1Cc2c(O)cc(O)cc2O[C@@H]1c1cc(O)c(O)c(O)c1-c1c([C@H]2Oc3cc(O)cc(O)c3C[C@H]2O)cc(O)c(O)c1O)c1cc(O)c(O)c(O)c1 [2',2'-BISEPIGALLOCATECHIN MONOGALLATE] only.
Output line: 5.69

Input line: Answer with the recorded pKi of `CC(=O)O[C@@H]1C[C@@H]2C(C)(C)[C@H](O)C=C[C@@]2(C)[C@@H]2CC[C@@]3(C)C(=CC(=O)O[C@@H]3c3ccoc3)[C@@]12C` only.
Output line: 5.92

Input line: Answer with the recorded pKi of `COc1c(CC=C(C)C)c2c(c3oc(=O)c(-c4ccc(O)cc4)c(O)c13)C=CC(C)(C)O2` only.
Output line: 6.23

Input line: Answer with the recorded pKi of C=C1[C@@H]2CC[C@@]3(C)[C@H](c4ccoc4)OC(=O)C[C@]13O[C@H]1CC(=O)C(C)(C)[C@H](C(OC(C)=O)C(=O)OC)[C@]12C (stereo partly specified) [METHYL 6-ACETOXYANGOLENSATE] only.
Output line: 6.10

Input line: Answer with the recorded pKi of CCC(C)C(=O)O[C@@H]1C[C@@]2(C)[C@H](c3ccoc3)OC(=O)CC23OC2(C)O[C@]14[C@]1(C)[C@@H](CC(=O)OC)C5(C)CC1(O)[C@](O)(C5OC(=O)C1(C)OC1C)[C@@H](OC(C)=O)[C@]34O2 (stereo partly specified) only.
Output line: 6.42

Input line: Answer with the recorded pKi of CC[C@@H](C(=O)[C@@H](C)[C@@H](O)[C@H](C)[C@@H]1O[C@@H]([C@@H](CC)C(=O)[O-])CC[C@@H]1C)[C@H]1O[C@]2(C=C[C@@H](O)[C@]3(CC[C@@](C)([C@H]4CC[C@](O)(CC)[C@H](C)O4)O3)O2)[C@H](C)C[C@@H]1C.[Na+] [SALINOMYCIN SODIUM] only.
Output line: 5.69

Input line: Answer with the recorded pKi of `CC(=O)O[C@H]1C[C@@H](OC(C)=O)C(C)(C)[C@@H]2C[C@@H](OC(C)=O)[C@]3(C)[C@H]([C@H](OC(C)=O)C[C@@]4(C)[C@H](c5ccoc5)OC(=O)[C@H]5O[C@@]534)[C@@]12C` only.
Output line: 6.32

Input line: Answer with the recorded pKi of `COC(=O)c1c(OC)cc2c(c1C)Oc1c(Cl)c(O)c(Cl)c(C)c1C(=O)O2` only.
Output line: 7.22

Input line: Answer with the recorded pKi of `CC1(C)C(=O)CC[C@]2(C)[C@@H]1C[C@@H](O)[C@]1(C)C3=CC(=O)O[C@H](c4ccoc4)[C@@]3(C)CC[C@@H]21` only.
Output line: 5.46
